// GI50 lookup, one value per entry
- System: M14
- protocol: NCI tumour cell line growth inhibition, 48 h
Active and inactive are the calls of the source. Cut-off read from the data, not from the text of the source: active = GI50 up to about 1.1 µM and inactive = higher.

compound: COc1ccc([C@@H]2CC(=O)NCCCNCCCCNCCCN2)cc1
GI50: > 100 µM (inactive)
//
compound: CC(=O)OC[C@@H](OC(C)=O)[C@@H](OC(C)=O)[C@H]1OC[C@@H]2C[C@H]([C@H]1OC(C)=O)N(Cc1ccccc1)O2
GI50: > 100 µM (inactive)
//
compound: N#CCCN(CCC#N)c1ccc(/C=C2\N=C(c3ccccc3)N(c3ccccn3)C2=O)cc1
GI50: > 100 µM (inactive)
//
compound: C/C(=N\NC(N)=S)C(CN1CCCCC1)C(C1=C(O)c2ccccc2OC1)c1ccccc1 (configuration not stated)
GI50: > 100 µM (inactive)
//
compound: CCC(C)(C)c1ccc(OCCCCNC(=O)c2ccc3ccccc3c2O)c(C(C)(C)CC)c1
GI50: 48.9 µM (inactive)

Lab note: M14 assay, enter GI50 for C[C@]12CCC3c4ccc(O)cc4CC[C@H]3C1CC(=O)N(N)C2=O (some centres not stated) here
> 100 µM (inactive)

Specify the recorded GI50 for CC(C)(C)C1=NC(=P(c2ccccc2)(c2ccccc2)c2ccccc2)C(=O)O1 , system: M14.
> 100 µM (inactive)

Specify GI50 for COc1ccc(/N=C(/SS/C(=N/c2ccc(OC)cc2)c2ccc([N+](=O)[O-])o2)c2ccc([N+](=O)[O-])o2)cc1 , system M14.
1.7 µM (inactive)

Give measured GI50 for Cc1cc2c3ccccc3[nH]c2c2ccnc(C)c12 (M14).
1.84 µM (inactive)

Fill in GI50 for O=C1/C(=C/c2ccccc2)CN(C(=O)C(F)(F)F)C/C1=C\c1ccccc1 tested with M14.
1.61 µM (inactive)
